- Protocol notes: supercomplex reporter luminescence per Hoechst cell count – Hoechst nuclei count (AID 1645838);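 further: control cybrid cells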
- Applied conditions: Cells, luminescence/Hoechst cell count ratio, measured here: cell number, Hoechst nuclei count, library stock concentration (final well concentration not given) 1.67 mM
The campaign covered roughly 2,000 compounds. About 100 (5%) were called active. The list comes from a sample in which actives are over-represented; it also holds close analogues and randomly drawn compounds.
Heads up, the class ranges for cell count are low (below 5000), middle (5000 to below 7000), high (7000 or more)

Exam item: Just checking, what class would you give CC(=NNC(=O)c1cccc(S(=O)(=O)N2CCOCC2)c1)c1cc(Cl)ccc1O here?
Marked response: low

Exam item: Hi there! Could you help me figure out the category for Cc1cc(Nc2cc(NC(=O)c3c(Cl)cccc3Cl)ccn2)nc(N)n1 please?
Marked response: low

Exam item: In plain terms, what class is CC(C=CC1=C(C)CCCC1(C)C)=CC=CC(C)=CC(=O)O ?
Marked response: middle

Exam item: Entry O=C(O)c1cc(O)c2ccccc2c1O belongs to which category?
Marked response: middle

Exam item: For the record Cc1cnc(Nc2ccc(OCCN3CCCC3)cc2)nc1Nc1cccc(S(=O)(=O)NC(C)(C)C)c1 , report the class its cell count corresponds to.
Marked response: low

Exam item: Please classify: CC(C)OC(=O)N1CCC(Oc2ncnc3c2cnn3-c2ccc(S(C)(=O)=O)cc2F)CC1
Marked response: high

Exam item: Hey, which category is O=c1cc(-c2cccc3c2Sc2ccccc2S3)oc(N2CCOCC2)c1 in, do you know?
Marked response: middle

Exam item: Which cell count band matches COc1cc(C=C(C#N)C(=O)Nc2nnc(C(F)(F)F)s2)ccc1OCc1ccc(C(F)(F)F)cc1C(F)(F)F ?
Marked response: high

Exam item: Classify this molecule: NC(=O)C(c1ccccc1)(c1ccc(F)cc1)c1ccc(F)cc1
Marked response: middle

Exam item: Any idea which band CCOC(=O)NCCCC(=O)NCCc1ccccc1 is in?
Marked response: middle

----------
- Protocol notes: supercomplex reporter luminescence per Hoechst cell count – Hoechst nuclei count (AID 1645838);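 further: control cybrid cells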
- Applied conditions: Cells, luminescence/Hoechst cell count ratio, measured here: cell number, Hoechst nuclei count, library stock concentration (final well concentration not given) 1.67 mM
In all, about 2,000 compounds went through this assay and about 100 (5%) were called active. For the sample, actives were picked, then their nearest neighbours and some compounds at random.
Kindly state cell count for each of the entries shown.
Number only, please.

Exam item: Value lookup for cell count; key = NC(=O)Nc1sc(-c2ccc(F)cc2)cc1C(N)=O
Marked response: 4790

Exam item: For the compound COc1cc2nc(N3CCCN(C)CC3)nc(NC3CCN(Cc4ccccc4)CC3)c2cc1OC , what cell count is on record?
Marked response: 5890

Exam item: What value of cell count has been recorded for this entry: O=c1cc(N2CCOCC2)oc2c1ccc1ccccc12
Marked response: 6270

Exam item: Any idea what cell count was measured for Cc1nc(Nc2ncc(C(=O)Nc3c(C)cccc3Cl)s2)cc(N2CCN(CCO)CC2)n1 ?
Marked response: 2120

Exam item: I'd like to know its cell count. The compound in question is COc1cc2c(NC3CCN(C(C)C)CC3)nc(C3CCCCC3)nc2cc1OCCCN1CCCC1
Marked response: 6450

Exam item: Item under review: COc1cc(NC(=O)c2ccc(-c3ccc(Cl)cc3)o2)cc(OC)c1 . Reported cell count?
Marked response: 6670

Exam item: What cell count value was documented for this compound, CC(C)c1ccccc1S(=O)(=O)c1cc(N)c2ncccc2c1[N+](=O)[O-] ?
Marked response: 6020

Exam item: Consider the compound COc1cccc(OC)c1-c1ccc(CC(NC(=O)c2c(Cl)cccc2Cl)C(=O)O)cc1 (stereo not given) and give its measured cell count.
Marked response: 5820

Exam item: May I ask what cell count has been recorded for COc1cccc(-c2ccc(NC(=O)C3=C(C(=O)O)CCC3)c(F)c2)c1 ?
Marked response: 6660

Exam item: Find the recorded cell count belonging to O=C(O)c1ccc2nc(-c3cc(Cl)cc(Cl)c3)oc2c1 and report it.
Marked response: 7500

----------
Exercise: state measured z-score for each of the compounds provided.
- Protocol notes: supercomplex reporter luminescence per Hoechst cell count – Hoechst nuclei count (AID 1645838);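 further: control cybrid cells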;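 on z-score: higher means more mitochondrial supercomplex formation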
- Applied conditions: Cells, luminescence/Hoechst cell count ratio, library stock concentration (final well concentration not given) 46 uM, stronger effect = higher value
Among all 2,000 compounds or so, about 100 (5%) were called active. Shown is part of a subset that was picked to be rich in actives. Residues, ends and D or L forms follow the SMILES beside them. *: point of attachment. Cbz = O=C(OCc1ccccc1)*
// return just the number, without any unit appended

Exam item: Given the entry CC(C)CC(C=O)NC(=O)C(CC(C)C)NC(=O)C(CC(C)C)NC(=O)OCc1ccccc1 (stereo not drawn) (Cbz-Leu-Leu-Leu-aldehyde; configuration not given here) , report its measured z-score.
Marked response: -0.417

Exam item: What does the data say about its z-score? Entry: O=C1C(Cc2ccc(O)cc2)N2C(=O)CCN(C(=O)NCc3ccccc3)C2CN1Cc1cccc2ccccc12 (centres undefined)
Marked response: -0.329

Exam item: Quick one: z-score for CN(CC=CC#CC(C)(C)C)Cc1cccc2ccccc12 ?
Marked response: -0.128

Exam item: For the compound c1cc2c(cc1C1CCCCC1)c1c3n2CCNC3CCC1 (centres undefined) , what z-score is on record?
Marked response: -0.207

Exam item: Quick one: z-score for CN1c2ccc([N+](=O)[O-])cc2N=C(c2ccc(C(=O)O)cc2)c2cc3c(cc21)C(C)(C)CCC3(C)C ?
Marked response: -0.143

Exam item: So what does the record say about z-score for CN1CCc2c(c3ccccc3n2Cc2ccc(C(=O)NO)cc2)C1 ?
Marked response: -0.165

Exam item: Entry Cc1ccc(C(=O)Nc2ccc(Oc3cc4cnn(C)c4cc3-c3cn[nH]c3)c(F)c2)c(=O)n1-c1ccc(F)cc1 has what z-score?
Marked response: -0.888

Exam item: What does the data say about its z-score? Entry: Cc1ccc(C)c(-n2sc3cc(F)ccc3c2=O)c1
Marked response: -0.174

Exam item: Quick one: z-score of COc1cc2c(NC3CCN(C(C)C)CC3)nc(C3CCCCC3)nc2cc1OCCCN1CCCC1 ?
Marked response: -0.551

Exam item: Entry under review: COc1ccccc1Oc1c(NS(=O)(=O)c2ccc(C)cn2)nc(-c2ccncc2)nc1OC . Reported z-score?
Marked response: -0.0599

Exam item: Please look up its z-score: COc1cc(C(=O)N(CCC2CCCN2C)CC(C)=Cc2ccccc2F)cc(OC)c1OC (centres undefined)
Marked response: 0.184

Exam item: Bench note: what z-score did Cc1ccc(NC(=O)c2cccc(C(C)(C)C#N)c2)cc1Nc1ccc2ncn(C)c(=O)c2c1 show?
Marked response: -0.155

Exam item: Quick one: z-score for NC(=O)c1noc(C(CCCC2CCCCC2)CC(=O)NO)n1 (centres undefined) ?
Marked response: -0.365

Exam item: Reported z-score for Cn1cc(-c2ccc3c(c2)CCN3C(=O)Cc2cccc(C(F)(F)F)c2)c2c(N)ncnc21 : what is it?
Marked response: -0.404

Exam item: Give the measured z-score of O=c1cc(N2CCOCC2)oc2c1ccc1ccccc12 .
Marked response: -0.263

Exam item: For the compound shown here, COc1cc(C(C)C)c2c(c1)S(=O)(=O)N(COc1cc(=O)n3cccc(OCCN4CCCCC4)c3n1)C2=O , give the reported z-score.
Marked response: -0.456

Exam item: Entry CC(C)OC(=O)N1CCC(Oc2ncnc3c2cnn3-c2ccc(S(C)(=O)=O)cc2F)CC1 : reported z-score = ?
Marked response: -0.707

Exam item: Fill in: z-score of N#Cc1cccc(C#N)c1-c1nc2c3ccccc3c3cc(Cl)ccc3c2[nH]1 is ___
Marked response: -0.238

Exam item: GET /values?readout=z-score&item= CN(C)CCC1(c2ccc(Cl)cc2)Cc2ccccc2C(=O)O1 (centres undefined)
Marked response: -0.548

----------
- Protocol notes: supercomplex reporter luminescence per Hoechst cell count – Hoechst nuclei count (AID 1645838);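 further: control cybrid cells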;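 on z-score: higher means more mitochondrial supercomplex formation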
- Applied conditions: Cells, luminescence/Hoechst cell count ratio, library stock concentration (final well concentration not given) 400 uM, stronger effect = higher value
About 100 (5%) of roughly 2,000 compounds were called active. What follows is part of a selection rich in actives, with near analogues and random picks from the rest.
Returns rule met if the recorded z-score is greater than or equal to 0.2, and rule not met otherwise.

Exam item: # bool: z-score of O=C(O)c1cccc(S(=O)(=O)N2CCc3ccccc3C2)c1 >= 0.2
Marked response: rule met

Exam item: Quick check: does Cn1cnc2c(F)c(Nc3ccc(Br)cc3F)c(C(=O)NOCCO)cc21 have z-score greater than or equal to 0.2?
Marked response: rule met

Exam item: Has O=C(O)c1ccc(Nc2ncc3c(n2)-c2ccc(Cl)cc2C(c2c(F)cccc2F)=NC3)cc1 a recorded z-score greater than or equal to 0.2?
Marked response: rule not met

Exam item: // inclusive: z-score at least 0.2? input: NCCCCN(Cc1nc2ccccc2[nH]1)C1CCCc2cccnc21 (stereo not given)
Marked response: rule not met

Exam item: Entry O=C(Nc1ccccc1)Nc1ccc(-c2ccc(C(=O)C3CCCC3C(=O)O)cc2)cc1 (stereo not given) : is its z-score no less than 0.2?
Marked response: rule not met

Exam item: Please tell me: is the compound NC(=O)c1ccc2nc(-c3ccc(Oc4ccc(Cl)cc4)cc3)[nH]c2c1 at or over 0.2 in terms of z-score?
Marked response: rule met

Exam item: Reported z-score at or above 0.2? CNC(=O)Nc1ccc(-c2nc(N3CC4CCC(C3)O4)c3cnn(C4CCC5(CC4)OCCO5)c3n2)cc1
Marked response: rule met

Exam item: Can CC(C)(C)c1ccc(S(=O)(=O)NCc2ccc(C(=O)Nc3cccnc3)cc2)cc1 be said to have z-score at or above 0.2?
Marked response: rule not met

Exam item: Does the reported z-score for O=C(NOCC1CC1)c1ccc(F)c(F)c1Nc1ccc(I)cc1Cl fall at or above the 0.2 mark?
Marked response: rule met

Exam item: Check this compound for z-score at or above 0.2: O=C(Nc1ccc(S(=O)(=O)Nc2ccccc2Cl)c(Cl)c1)c1ccccn1
Marked response: rule met

Exam item: Does CC(C)(C)C(O)C=Cc1ccc2c(c1)OCO2 (stereo not given) have a reported z-score of at least 0.2?
Marked response: rule met

Exam item: Does the reported z-score for Cn1cnc2c(F)c(Nc3ccc(Br)cc3Cl)c(C(=O)NOCCO)cc21 fall at or above the 0.2 mark?
Marked response: rule met

Exam item: Could you verify whether the entry c1ccc(Cc2ccncc2)cc1 shows z-score of no less than 0.2?
Marked response: rule not met

Exam item: Hello, I need to know if C#C[C@]1(O)CC[C@@H]2[C@@H]3CCc4cc(O)ccc4[C@@H]3CC[C@@]21C has measured z-score not below 0.2. Thanks!
Marked response: rule not met

Exam item: z-score >= 0.2 for CSCCC(NC(=O)C(CC(C)C)NC(=O)CNC(=O)C(NC(=O)C(Cc1ccccc1)NC(=O)C(CO)NC(=O)C(CC(=O)O)NC(=O)[C@H](NC(=O)C(CCCCN)NC(=O)C(N)Cc1cnc[nH]1)C(C)O)C(C)C)C(N)=O (stereo not given in full) ?
Marked response: rule not met

Exam item: Hi team, for NCC(=O)Nc1ccc(-n2nc(C(F)(F)F)cc2-c2ccc3c(ccc4ccccc43)c2)cc1 , is the recorded z-score at or above 0.2?
Marked response: rule not met

Exam item: Please tell me: is the compound COc1ccc(CCOC2CCCCC2N2CCC(O)C2)cc1OC (stereo not given) at or over 0.2 in terms of z-score?
Marked response: rule met

Exam item: Item CCC(=C(CC)c1ccc(O)cc1)c1ccc(O)cc1 with z-score of 0.2 or above?
Marked response: rule not met

Exam item: Hello, I need to know if Cn1c(SCC(=O)N2CCCC2C(=O)Nc2ccccc2-c2ccccc2)nc2ccccc21 (stereo not given) has measured z-score not below 0.2. Thanks!
Marked response: rule not met

Exam item: Check this compound for z-score at or above 0.2: Cc1ccc(-c2ccc3c(c2)C=C(C(=O)Nc2ccc(C[N+](C)(C)C4CCOCC4)cc2)CCC3)cc1
Marked response: rule not met
